Target: human EHMT2 913-1193 (Homo sapiens, UniProt Q96KQ7)
Construct: recombinant purified human EHMT2 913-1193, Viva; purchased Viva
Assay: EHMT2 enzyme assay on histone peptide substrate (EHMT2 PEP)
Type: biochemical
Conditions: recombinant human EHMT2 913-1193, histone H3 1-15 peptide, balanced conditions; read-out: EHMT2 PEP (IC50 μM)
READOUT_NAME: IC50

Illustrative cases are given below, each with its answer.
COc1cnc(Nc2cccc3cncn23)cc1OCCCN1CCCC1 : > 10 µM
COc1ccc(Nc2nc(C)cc(NCC3CCOCC3)n2)cc1OCC1CCN(C2CC2)C1 (stereo not drawn) : < 0.1 µM
COc1ncc(Nc2nc(C)cc(NCC3CCOCC3)n2)cc1OC[C@@H]1CCN(C(C)C)C1 : 0.1 to 1 µM
CNc1ccnc(Nc2ccc(OC)c(OCCOC3CC3)c2)n1 : > 10 µM
COc1cnc(Nc2nc(C)cc3[nH]c(C)cc23)cc1OCCCN1CCCC1 : < 0.1 µM

Pending compound:
Give its IC50 value. Item: CNc1cc(C)nc(Nc2ccc(OC)c(OCC3CCN(C4CC4)C3)c2)n1 (stereo not drawn)
< 0.1 µM

* * *

Biological target: EHMT2 (Homo sapiens)
Construct: host or cells: MDA-MB-231
Sequence (Q96KQ7 1-1210): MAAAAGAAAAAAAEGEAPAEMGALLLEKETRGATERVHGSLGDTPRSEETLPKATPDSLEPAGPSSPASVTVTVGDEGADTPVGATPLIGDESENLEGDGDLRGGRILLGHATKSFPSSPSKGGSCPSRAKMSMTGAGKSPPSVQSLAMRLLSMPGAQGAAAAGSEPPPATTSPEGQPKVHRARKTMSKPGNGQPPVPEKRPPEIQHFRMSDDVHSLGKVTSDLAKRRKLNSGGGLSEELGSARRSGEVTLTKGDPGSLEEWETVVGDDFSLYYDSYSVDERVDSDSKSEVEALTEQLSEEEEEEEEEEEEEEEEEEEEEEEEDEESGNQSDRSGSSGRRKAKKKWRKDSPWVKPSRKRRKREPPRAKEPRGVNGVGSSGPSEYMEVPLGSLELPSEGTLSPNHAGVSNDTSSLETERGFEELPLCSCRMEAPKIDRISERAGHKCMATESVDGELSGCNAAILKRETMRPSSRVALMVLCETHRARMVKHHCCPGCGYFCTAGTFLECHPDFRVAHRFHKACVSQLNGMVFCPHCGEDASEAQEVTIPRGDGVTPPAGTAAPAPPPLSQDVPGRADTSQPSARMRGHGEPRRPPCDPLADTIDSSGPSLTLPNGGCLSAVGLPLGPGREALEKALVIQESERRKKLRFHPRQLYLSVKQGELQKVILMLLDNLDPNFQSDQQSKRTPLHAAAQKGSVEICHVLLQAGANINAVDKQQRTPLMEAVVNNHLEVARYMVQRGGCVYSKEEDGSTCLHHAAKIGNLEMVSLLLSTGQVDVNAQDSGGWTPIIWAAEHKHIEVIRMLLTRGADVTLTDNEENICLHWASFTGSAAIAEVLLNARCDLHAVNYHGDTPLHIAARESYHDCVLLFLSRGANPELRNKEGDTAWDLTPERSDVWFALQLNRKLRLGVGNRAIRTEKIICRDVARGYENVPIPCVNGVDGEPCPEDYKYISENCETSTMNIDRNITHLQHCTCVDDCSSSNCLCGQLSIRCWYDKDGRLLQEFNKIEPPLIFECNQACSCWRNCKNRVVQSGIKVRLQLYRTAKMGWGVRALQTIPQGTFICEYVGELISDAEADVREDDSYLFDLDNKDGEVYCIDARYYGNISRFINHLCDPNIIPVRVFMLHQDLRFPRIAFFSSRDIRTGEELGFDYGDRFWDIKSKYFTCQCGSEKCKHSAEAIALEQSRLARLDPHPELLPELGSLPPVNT
Assay: MDA-MB-231 H3K9me2 in-cell Western assay (EHMT2 ICW)
Assay type: cell-based
Conditions: Table III; MDA-MB-231 H3K9me2 in-cell Western; read-out: EHMT2 ICW (IC50 μM)
Reported IC50 by item:

Illustrative cases are given below, each with its answer.
COc1ccc(Nc2cnnc(NCC3CCN(C(C)=O)CC3)c2)cc1OCCCN1CCCC1 [Compound 366] : > 10 µM
COc1ccc(Nc2nccc(NCC3CC(C)(C)NC(C)(C)C3)n2)cc1OCCCN1CCCC1 [Compound 278] : 1 to 10 µM
CNc1cc(C)nc(Nc2ccc(OC)c(OCC3CCN(CC4CC4)CC3)c2)n1 [Compound 436] : > 10 µM
CNc1cc(C)nc(Nc2ccc(OC)c(COC3CCN(C)C3)c2)n1 (centres unmarked) [Compound 421] : 1 to 10 µM
CNc1ccnc(Nc2ccc(OC)c(COCCN3CCCC3)c2)n1 [Compound 382] : 0.1 to 1 µM
CNc1ccnc(Nc2ccc(OC)c(OCCCN3CC4CC4C3)c2)n1 (centres unmarked) [Compound 298] : 0.1 to 1 µM
CNc1ccnc(Nc2ccc(OC)c(OCCCN3CC[C@@H](F)C3)c2)n1 [Compound 353] : 1 to 10 µM
CNc1ccnc(Nc2ccc(OC)c(OCCCN(C)CC3CC3)c2)n1 [Compound 424] : 1 to 10 µM

Give its IC50 value. Item: CNc1cc(C)nc(Nc2ccc(OC)c(O[C@H]3C[C@@H](N(C)C)C3)c2)n1 (single isomer, unassigned) [Compound 317]
1 to 10 µM

Give its IC50 value. Item: CNc1ccnc(Nc2ccc(OC)c(OCCCN3CC(C)C3)c2)n1 [Compound 423]
1 to 10 µM

Give its IC50 value. Item: CNc1ccnc(Nc2ccc(OC)c(OCCCN3CCC(C)C3)c2)n1 (centres unmarked) [Compound 293]
1 to 10 µM

* * *

Target: EHMT1 (Homo sapiens, UniProt Q9H9B1)
Sequence (Q9H9B1 whole entry, species assumed): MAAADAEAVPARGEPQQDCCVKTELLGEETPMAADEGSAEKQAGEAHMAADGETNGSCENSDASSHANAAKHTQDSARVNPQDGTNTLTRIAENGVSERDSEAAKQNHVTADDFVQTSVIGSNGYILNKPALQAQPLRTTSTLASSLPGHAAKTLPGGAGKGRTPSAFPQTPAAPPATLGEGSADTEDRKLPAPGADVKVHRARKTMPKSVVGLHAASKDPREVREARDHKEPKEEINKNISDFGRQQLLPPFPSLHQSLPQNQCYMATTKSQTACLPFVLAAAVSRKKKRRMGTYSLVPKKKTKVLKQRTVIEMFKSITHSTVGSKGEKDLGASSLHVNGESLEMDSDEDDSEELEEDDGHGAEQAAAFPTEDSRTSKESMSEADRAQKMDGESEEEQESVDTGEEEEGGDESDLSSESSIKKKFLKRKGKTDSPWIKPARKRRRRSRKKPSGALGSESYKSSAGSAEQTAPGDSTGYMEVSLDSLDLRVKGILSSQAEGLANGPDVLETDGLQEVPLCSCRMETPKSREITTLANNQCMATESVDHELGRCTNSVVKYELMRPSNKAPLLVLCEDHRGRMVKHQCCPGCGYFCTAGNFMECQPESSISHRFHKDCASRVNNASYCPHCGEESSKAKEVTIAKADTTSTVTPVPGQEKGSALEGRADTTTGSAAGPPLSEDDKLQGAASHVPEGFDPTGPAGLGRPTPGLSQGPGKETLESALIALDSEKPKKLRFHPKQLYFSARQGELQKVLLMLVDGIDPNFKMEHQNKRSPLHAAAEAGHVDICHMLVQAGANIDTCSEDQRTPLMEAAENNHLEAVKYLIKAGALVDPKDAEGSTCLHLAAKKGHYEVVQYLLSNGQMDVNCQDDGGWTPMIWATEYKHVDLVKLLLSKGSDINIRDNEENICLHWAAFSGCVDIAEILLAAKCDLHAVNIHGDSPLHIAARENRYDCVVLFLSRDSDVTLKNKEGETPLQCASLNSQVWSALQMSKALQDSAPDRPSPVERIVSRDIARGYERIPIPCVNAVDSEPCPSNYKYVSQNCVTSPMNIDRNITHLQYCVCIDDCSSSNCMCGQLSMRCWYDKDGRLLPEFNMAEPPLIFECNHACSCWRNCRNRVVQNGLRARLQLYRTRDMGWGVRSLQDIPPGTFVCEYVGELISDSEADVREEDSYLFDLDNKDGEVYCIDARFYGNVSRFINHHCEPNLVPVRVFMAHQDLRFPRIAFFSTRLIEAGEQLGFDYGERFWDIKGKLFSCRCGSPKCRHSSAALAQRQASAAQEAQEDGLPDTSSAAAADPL
Assay: EHMT1 enzyme assay on peptide substrate (EHMT1 PEP)
Assay type: biochemical
Settings: Table III; read-out: EHMT1 PEP (IC50 μM)
READOUT_NAME: IC50

Illustrative cases are given below, each with its answer.
CNc1cc(COC)nc(Nc2ccc(OC)c(OCCCN3CCCC3)c2)n1 : 0.1 to 1 µM
COc1ccc(Nc2nccc(NCC3CC(C)(C)NC(C)(C)C3)n2)cc1OCCCN1CCCC1 : < 0.1 µM
CCCN1CCC(COc2cc(Nc3nccc(NC)n3)ccc2OC)C1 (stereo not drawn) : 0.1 to 1 µM
CNc1nc(Nc2ccc(OC)c(OCCCN3CCCC3)c2)ncc1C#N : > 10 µM
CNc1cc(C)nc(Nc2ccc(OC)c(OCC3CCN(C4COC4)C3)c2)n1 (stereo not drawn) : 0.1 to 1 µM

Pending compound:
Give its IC50 value. Item: COc1ccc(Nc2cc(C)nc(O)n2)cc1OCCCN1CCCC1
> 10 µM

* * *

Target: EHMT2 (Homo sapiens)
Construct: host or cells: MDA-MB-231
Experiment: MDA-MB-231 H3K9me2 in-cell Western assay (EHMT2 ICW)
Type: cell-based
Details: Table II; MDA-MB-231 H3K9me2 in-cell Western; read-out: EHMT2 ICW (IC50 μM)
READOUT_NAME: IC50

Illustrative cases are given below, each with its answer.
COc1cnc(Nc2cc(NCC3CCN(C(C)=O)CC3)ccn2)cc1OCCCN1CCCC1 : > 10 µM
COc1ccc(Nc2nccc(N3CCc4ncncc4C3)n2)cc1OCCCN1CCCC1 : > 10 µM
COc1ccc(Nc2nccc(NC(C)(C)C)n2)cc1OCCCN1CCCC1 : 1 to 10 µM
COc1ccc(Nc2nc(NCC3CCNCC3)cc(N3CCCC3)n2)cc1OCCCN1CCCC1 : > 10 µM
COc1ccc(Nc2nccc(NCCNC(C)=O)n2)cc1OCCCN1CCCC1 : 0.1 to 1 µM
CNc1ccnc(Nc2ccc(OC)c(OCCCN3CCCC3)c2)c1 : 1 to 10 µM

Give its IC50 value. Item: COc1ccc(Nc2nccc(NCC3CCOCC3)n2)cc1NCCCN1CCCC1
1 to 10 µM

Give its IC50 value. Item: CCc1cc(NC)nc(Nc2ccc(OC)c(OCCCN3CCCC3)c2)n1
0.1 to 1 µM

Give its IC50 value. Item: COc1ccc(Nc2ccc3ncc(C)n3n2)cc1OCCCN1CCCC1
> 10 µM

Give its IC50 value. Item: COc1ccc(Nc2nccc(NCc3ccccc3)n2)cc1OCCCN1CCCC1
0.1 to 1 µM

Give its IC50 value. Item: COc1ccc(Nc2nccc(NCC3CCN(C(C)=O)CC3)n2)cc1OCCCN1CCCC1
1 to 10 µM

* * *

Target: EHMT2 (Homo sapiens, UniProt Q96KQ7)
Construct: host or cells: MDA-MB-231
Sequence (Q96KQ7 1-1210): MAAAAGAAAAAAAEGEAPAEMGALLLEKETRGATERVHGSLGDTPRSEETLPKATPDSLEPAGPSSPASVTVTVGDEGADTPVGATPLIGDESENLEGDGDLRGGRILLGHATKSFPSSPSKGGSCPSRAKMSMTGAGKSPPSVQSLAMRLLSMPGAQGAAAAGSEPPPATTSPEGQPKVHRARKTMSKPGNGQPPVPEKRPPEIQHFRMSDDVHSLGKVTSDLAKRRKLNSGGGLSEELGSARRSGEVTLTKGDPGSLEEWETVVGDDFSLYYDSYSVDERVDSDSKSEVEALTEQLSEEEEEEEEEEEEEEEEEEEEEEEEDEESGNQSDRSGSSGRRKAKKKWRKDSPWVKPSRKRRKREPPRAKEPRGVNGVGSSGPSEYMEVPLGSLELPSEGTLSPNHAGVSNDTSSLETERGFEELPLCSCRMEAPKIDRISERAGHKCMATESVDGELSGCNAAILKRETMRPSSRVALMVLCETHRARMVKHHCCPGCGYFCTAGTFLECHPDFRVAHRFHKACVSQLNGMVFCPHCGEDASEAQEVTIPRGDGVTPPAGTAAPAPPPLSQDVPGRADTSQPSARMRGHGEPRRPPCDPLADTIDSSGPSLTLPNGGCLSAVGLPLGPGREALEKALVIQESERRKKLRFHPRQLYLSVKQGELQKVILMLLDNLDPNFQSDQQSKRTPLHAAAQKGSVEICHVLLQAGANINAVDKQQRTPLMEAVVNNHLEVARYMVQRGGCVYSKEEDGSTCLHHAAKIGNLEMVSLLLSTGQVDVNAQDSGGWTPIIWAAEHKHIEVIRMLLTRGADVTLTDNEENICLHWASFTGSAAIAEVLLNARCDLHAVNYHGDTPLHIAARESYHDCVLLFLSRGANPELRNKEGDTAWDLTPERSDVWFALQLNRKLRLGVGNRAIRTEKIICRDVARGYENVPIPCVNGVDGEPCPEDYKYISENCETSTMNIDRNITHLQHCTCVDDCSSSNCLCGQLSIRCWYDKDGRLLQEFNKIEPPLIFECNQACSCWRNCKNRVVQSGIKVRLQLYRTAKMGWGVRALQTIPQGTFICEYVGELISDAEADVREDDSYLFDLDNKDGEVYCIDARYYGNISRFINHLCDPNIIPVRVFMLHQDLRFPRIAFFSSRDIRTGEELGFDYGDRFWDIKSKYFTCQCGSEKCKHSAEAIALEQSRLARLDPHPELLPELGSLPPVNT
Test: MDA-MB-231 H3K9me2 in-cell Western assay (EHMT2 ICW)
Format: cell-based
Details: Table VII; read-out: EHMT2 ICW IC50
READOUT_NAME: IC50

CNc1cc(C2CCOCC2)c2cc(OC)c(CNCCN3CCCC3)cc2n1 [Compound 1111] : 100 to 1000 nM

Pending molecule:
Give its IC50 value. Item: CNC[C@@H](C)NCc1cc(Nc2nc(C)cc(NC)n2)ccc1OC [Compound 1103]
1000 to 10000 nM
